target: human GPR40 (Homo sapiens)
Sequence (O14842 whole entry): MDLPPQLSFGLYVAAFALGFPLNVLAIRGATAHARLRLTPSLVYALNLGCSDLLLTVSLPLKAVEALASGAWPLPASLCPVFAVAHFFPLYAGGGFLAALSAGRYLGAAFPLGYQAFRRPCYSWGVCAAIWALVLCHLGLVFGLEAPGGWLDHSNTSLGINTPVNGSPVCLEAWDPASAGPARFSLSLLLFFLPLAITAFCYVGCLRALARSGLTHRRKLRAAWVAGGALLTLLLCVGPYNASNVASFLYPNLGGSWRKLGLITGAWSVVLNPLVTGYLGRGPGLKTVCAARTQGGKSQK
experiment notes: Inositol Phosphate Turnover (IP1) Assay 2
Format: cell-based
Parameters: expressed in transfected cells
condition info: HEK cells stably expressing human GPR40, Table 2, read-out: Human IP1
measured property: EC50 (nM)
Answers are plain numbers, in nM.

Here are 4 compounds together with their reported answers.
compound	EC50 / nM
COc1ccc(F)c(-c2ccc(C3CCc4ccc([C@H](C5CC5)[C@@H](C)C(=O)O)cc4O3)nc2)c1 (single isomer, unassigned) [Example 97b]	30
COc1ccc(F)c(-c2ccc(C3CCc4ccc(C(C5CCC5)C(C)C(=O)O)cc4O3)cc2)c1 (single isomer, unassigned) [Example 157]	90
COc1ccc(F)c(-c2cnc(C3CCc4ccc([C@H](C5CC5)[C@H](C)C(=O)O)cc4O3)cn2)c1 (mixture of isomers) [Example 131]	1.7
COc1ccc(F)c(-c2ccc(C3CCc4ccc(C(C5CCC5)C(C)C(=O)O)cc4O3)cc2)c1 (single isomer, unassigned) [Example 159]	1.8

Return reported EC50 values for all items listed beneath this line.
1. COc1ccc(F)c(-c2cnc(C3CCc4ccc([C@H](C5CC5)[C@H](C)C(=O)O)cc4O3)c(F)c2)c1 (single isomer, unassigned) [Example 105a]
2. COc1cncc(-c2ccc(C3CCc4ccc([C@@H](CC(=O)O)C5CC5)cc4O3)c(F)c2)n1 (mixture of isomers) [Example 93]

-- reply
1. 0.82
2. 488
